Test system: WNK4;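 also: KINOMEscan kinase panel screen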
assay-setup: concentration: 1 μM, replicates: in singlicate; n = 1
molecules and their reported %Inh
Form entry: enter the amount, then its unit.

Solved entries:
COc1cc2ncnc(Nc3ccc(OCc4ccccc4Br)c(Cl)c3)c2cc1OC.Cl; 52%
Clc1ccc(-c2cc(-c3c[nH]nc3-c3ccccn3)ccn2)cc1; 0%
CC(C)N1CCC(n2cnc(-c3ccc(F)cc3)c2-c2ccnc(N)n2)CC1; 0%
COC(=O)c1cccc(NC(=O)NCCNc2ccnc(Nc3ccc(F)cc3)n2)c1; 36%

I would be grateful if you could share the reported %Inh for O=C(Nc1ccccc1F)NC1CCN(c2ccnc(Nc3ccc(F)cc3)n2)C1 (stereo not shown) .
28%

And the next one, `Fc1ccc(Nc2nccc(-c3c(-c4ccc(Cl)cc4)nn4ncccc34)n2)cc1F` ?
28%

And the next one, `COc1ccc(-c2nc3n(c2-c2ccncc2)CCC3)cc1` ?
17%

And the next one, `Cn1cc(-c2ccc3c(c2)CCN3C(=O)Cc2cccc(C(F)(F)F)c2)c2c(N)ncnc21` ?
0%

Data credit: paper PMC5540273
